# system_under_test: T1, S100A4, wild type, Ca^2+-bound dimer (recombinant) (UniProt P26447 1-101)
# T1 construct: also called WT; u-S100A4; source: recombinant, unlabeled and 13C,15N-labeled; purified
# experiment: SPR; sensorgrams at nanomolar concentrations of M39; simultaneous fit to a single site-binding model; n = 3
# run_parameters: both partners purified
observed_property: Kd (nM)

>>> endpoint_result("QRELEDATETADAMNREVSSLKNKLRRGDLPFVVPRRMA (peptide, UniProt P35579 1897-1935, looked up, nonmuscle myosin IIA (NMIIA) heavy chain, residues Q1897-A1935; Unmodified (no fluorescent label); also called u-M39; source: synthetic peptide) [M39, nonmuscle myosin IIA heavy chain peptide (residues Q1897–A1935)]")
0.24
